# EXPERIMENT SUMMARY: Organ distribution 14 days after infusion (Table V)
# Format: in vivo, rats
# CONDITION SUMMARY: 14 days after infusion of 40 cc/Kg
PROPERTY: Kidney (g/100 g)
Respond with the bare value in g/100 g.

MOLECULE	UNITS	Kidney
CCCCCCCCCCCCCCCCOC(COCCCCCCCCCCCCCC)COP(=O)([O-])OCC[N+](C)(C)C (centres unmarked)	g/100 g	1.22
CCCCCCCCCCCCCCCCCCOC(COCCCCCCCCCCCCCC)COP(=O)([O-])OCC[N+](C)(C)C (centres unmarked)	g/100 g	0.94
CCCCCCCCCCCCCCCCCCOCC(COP(=O)([O-])OCC[N+](C)(C)C)OCCCCCCCCCCCCCCCC (centres unmarked)	g/100 g	0.89
CCCCCCCC/C=C\CCCCCCCCOCC(COP(=O)([O-])OCC[N+](C)(C)C)OCCCCCCCC/C=C\CCCCCCCC (centres unmarked)	g/100 g	0.96

Query :: Consider the molecule CCCCCCCCCCCCCCCCOCC(COP(=O)([O-])OCC[N+](C)(C)C)OCCCCCCCCCCCCCC (centres unmarked) . State its measured Kidney.
Result :: 1.06
